Values compiled from patent US10725001B2.

The entries below come with measured pKa values attached.
- measurement.protocol: Acid dissociation constants (pKa) of the dopant compounds
- Assay type: physicochemical
- experimental.context: read-out: acid dissociation constant (pKa)
// response body must contain only the number

Reference set (3 entries):
>>> result_number("CCCCCCCCCCCCOc1ccc(-c2ccc(C(=O)O)cc2)cc1")
8.74
>>> result_number("CCCCCCCCOc1ccc(-c2ccc(C(=O)O)cc2)cc1")
7.66
>>> result_number("CCCCCCc1ccc(-c2ccc(C(=O)O)cc2)cc1")
7.68

We next turn to a different compound, shown below.
input: // returns reported pKa for input CCCCCCCCCCOc1ccc(-c2ccc(C(=O)O)cc2)cc1
output: 9.77
